TARGET_ENTITY: trypsin-activated recombinant human renin (Homo sapiens, UniProt P00797)
ASSAY_PROCEDURE: Renin fluorescence assay (internally quenched peptide substrate)
Assay type: biochemical
RUN_PARAMETERS: compounds I*
OUTCOME_MEASURE: IC50

Given COC(=O)NCCO[C@@H](c1cc(F)ccc1C)[C@@H]1CCCN(C(=O)NC[C@@H](N)C[C@H]2CCCCOC2)C1 [I*-58a] , respond with its IC50. < 10 nM

Given CNC[C@H](CC1CCOCC1)NC(=O)N1CCC[C@@H]([C@@H](OCCNC(=O)OC)c2cc(C)ccc2F)C1 [I*-49a] , respond with its IC50. > 50 nM

Given CNC[C@H](CC12CC3CC(CC1C3)C2)NC(=O)N1CCC[C@@H]([C@@H](OCCNC(=O)OC)c2cc(F)ccc2F)C1 [I*-149a] , respond with its IC50. < 10 nM

Given CNC[C@H](CC1CCCOC1)NC(=O)N1CCC[C@@H]([C@@](O)(CCCNC(=O)OC)c2cccc(Cl)c2F)C1 (some centres unmarked) [I*-139a] , respond with its IC50. < 10 nM

Given CNC[C@H](CC12CC3CC(CC1C3)C2)NC(=O)N1CCC[C@@H]([C@@](C)(OCCNC(=O)OC)c2cccc(Cl)c2)C1 [I*-151a] , respond with its IC50. < 1 nM

Given CNC[C@H](CC1CCOCC1)NC(=O)N1CCC[C@@H]([C@@](C)(OCCNC(=O)OC)c2cccc(Cl)c2)C1 [I*-103a] , respond with its IC50. < 20 nM

Given CNC[C@H](C[C@H]1CCC(C)(C)OC1)NC(=O)N1CCC[C@@H]([C@@H](OCCNC(=O)OC)c2cc(F)cc(F)c2)C1 [I*-155a] , respond with its IC50. < 10 nM

Given CNC[C@H](CC1CCCCC1)NC(=O)N1CCC[C@@H](C(OCCNC(=O)OC)c2cc(Cl)ccc2F)C1 (some centres unmarked) [I*-116a] , respond with its IC50. < 10 nM

Given CNC[C@H](CC1CCCCC1)NC(=O)N1CCC[C@@H]([C@@H](OCCNC(=O)OC)C2CCCCC2)C1 [I*-10a] , respond with its IC50. < 10 nM

Given CNCC(CC1CCCOC1)NC(=O)N1CCCC(C(O)(CCCNC(=O)OC)c2cccc(F)c2)C1 (centres unmarked) [I*-54a] , respond with its IC50. < 50 nM

Given CNC[C@H](CC1CCCCC1)NC(=O)N1CCC[C@@H]([C@@H](OCCNC(=O)OC)c2nccs2)C1 [I*-13a] , respond with its IC50. < 20 nM

Given COC(=O)NCCO[C@@H](c1cccc(Cl)c1)[C@@H]1CCCN(C(=O)NC[C@@H](N)COc2ccccc2)C1 [I*-38a] , respond with its IC50. < 50 nM

Given CNC[C@H](CC12CC3CC(CC(C3)C1)C2)NC(=O)N1CCC[C@@H]([C@@H](OCCNC(=O)OC)c2cc(F)ccc2F)C1 [I*-152a] , respond with its IC50. < 10 nM

Given CNC[C@@H](NC(=O)N1CCC[C@@H]([C@@H](OCCNC(=O)OC)c2ccccc2)C1)[C@@H](O)C1CCCCC1 [I*-19a] , respond with its IC50. < 10 nM

----------
Please go through the items and note down their pIC50.
TARGET_ENTITY: trypsin-activated recombinant human renin (Homo sapiens)
Sequence (P00797 67-406): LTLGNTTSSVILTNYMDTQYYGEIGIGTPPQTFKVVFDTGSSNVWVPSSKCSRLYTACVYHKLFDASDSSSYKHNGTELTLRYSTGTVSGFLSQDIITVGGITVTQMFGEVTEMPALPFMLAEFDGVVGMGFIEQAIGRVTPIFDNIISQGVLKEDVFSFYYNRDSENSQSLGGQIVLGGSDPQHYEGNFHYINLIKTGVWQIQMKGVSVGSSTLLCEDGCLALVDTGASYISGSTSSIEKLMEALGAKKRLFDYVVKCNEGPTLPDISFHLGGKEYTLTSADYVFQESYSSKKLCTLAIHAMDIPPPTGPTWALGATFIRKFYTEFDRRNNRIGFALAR
ASSAY_PROCEDURE: Renin fluorescence assay (internally quenched peptide substrate)
Type: biochemical
RUN_PARAMETERS: compounds I*
Procedure: The sequence of this peptide corresponds to the sequence of human angiotensinogen. The following test protocol can be used. All reactions are carried out in a flat bottom white opaque microtiter plate. […] The increase in fluorescence at 495 nm (excitation at 340 nm) is measured for 60-360 minutes at rt using a Perkin-Elmer Fusion microplate reader. […]
pIC50: −log10 of the molar value.

Given CNC[C@H](CC1CCCCC1)NC(=O)N1CCC[C@@H]([C@@H](OCCNC(=O)OC)c2ccc(F)c(Cl)c2)C1 [I*-118a] , respond with its pIC50. > 9.00

Given CNC[C@H](CC1CCC(F)(F)CC1)NC(=O)N1CCC[C@@H]([C@@H](OCCNC(=O)OC)c2cc(F)cc(F)c2)C1 [I*-147a] , respond with its pIC50. > 9.00

Given CNC[C@H](CC1CCOCC1)NC(=O)N1CCC[C@@H]([C@@H](OCCNC(=O)OC)c2cccc(C)c2)C1 [I*-20a] , respond with its pIC50. > 7.30

Given CNC[C@H](CC1CCOCC1)NC(=O)N1CCC[C@@H]([C@@H](OCCNC(=O)OC)c2cc(C)cc(F)c2)C1 [I*-52a] , respond with its pIC50. > 8.00

Given CNC[C@H](CC1CCCCCC1)NC(=O)N1CCC[C@@H]([C@@H](OCCNC(=O)OC)c2cccc(Cl)c2F)C1 [I*-135a] , respond with its pIC50. > 8.00

Given CNC[C@@H](NC(=O)N1CCC[C@@H]([C@@H](OCCNC(=O)OC)c2cc(Cl)ccc2C)C1)[C@@H](O)C1CCCC1 [I*-107a] , respond with its pIC50. > 8.00

Given CNC[C@@H](NC(=O)N1CCC[C@@H]([C@@H](OCCNC(=O)OC)c2cccc(F)c2)C1)[C@@H](O)C1CCCC1 [I*-27a] , respond with its pIC50. > 8.00

----------
Please go through the items and note down their IC50.
TARGET_ENTITY: trypsin-activated recombinant human renin (Homo sapiens, UniProt P00797)
Sequence (P00797 67-406): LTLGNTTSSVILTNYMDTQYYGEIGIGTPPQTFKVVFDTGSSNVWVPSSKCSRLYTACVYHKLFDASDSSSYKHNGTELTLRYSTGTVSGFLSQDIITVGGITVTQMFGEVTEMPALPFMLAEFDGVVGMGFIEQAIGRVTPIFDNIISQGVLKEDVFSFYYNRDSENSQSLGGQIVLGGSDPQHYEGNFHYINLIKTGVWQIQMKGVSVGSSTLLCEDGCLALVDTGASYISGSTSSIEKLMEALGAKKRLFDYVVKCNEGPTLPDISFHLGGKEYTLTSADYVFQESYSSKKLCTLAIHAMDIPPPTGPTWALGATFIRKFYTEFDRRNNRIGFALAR
ASSAY_PROCEDURE: Renin fluorescence assay (internally quenched peptide substrate)
Assay type: biochemical
RUN_PARAMETERS: compounds I*

Given CNC[C@H](C[C@H]1CCCCOC1)NC(=O)N1CCC[C@@H]([C@@H](OCCNC(=O)OC)c2cccc(Cl)c2F)C1 [I*-140a] , respond with its IC50. < 1 nM

Given CNC[C@H](CC1CCCCCC1)NC(=O)N1CCC[C@@H]([C@@H](OCCNC(=O)OC)c2cccc(Cl)c2)C1 [I*-84a] , respond with its IC50. < 1 nM

Given CNC[C@H](CC1(C)CCCCC1)NC(=O)N1CCC[C@@H]([C@@H](OCCNC(=O)OC)c2cccc(Cl)c2)C1 [I*-90a] , respond with its IC50. < 1 nM

Given CNC[C@H](CC1(C)CCCCC1)NC(=O)N1CCC[C@@H]([C@@H](OCCNC(=O)OC)c2cccc(F)c2)C1 [I*-43a] , respond with its IC50. < 10 nM

Given CNC[C@H](CC1CCCCC1)NC(=O)N1CCC[C@@H]([C@@H](OCCNC(=O)OC)c2ccccc2)C1 (mixture of isomers) , respond with its IC50. < 10 nM

Given CNC[C@H](CC1CCCOCC1)NC(=O)N1CCC[C@@H]([C@@H](OCCNC(=O)OC)c2cccc(Cl)c2F)C1 (stereo partly drawn) [I*-137a] , respond with its IC50. < 10 nM

----------
Please go through the items and note down their pIC50.
TARGET_ENTITY: trypsin-activated recombinant human renin (Homo sapiens)
ASSAY_PROCEDURE: Renin fluorescence assay (internally quenched peptide substrate)
Assay type: biochemical
RUN_PARAMETERS: compounds I*
Experimental: The sequence of this peptide corresponds to the sequence of human angiotensinogen. The following test protocol can be used. All reactions are carried out in a flat bottom white opaque microtiter plate. […] The increase in fluorescence at 495 nm (excitation at 340 nm) is measured for 60-360 minutes at rt using a Perkin-Elmer Fusion microplate reader. […]
pIC50: −log10 of the molar value.

Given CNC[C@H](CC1CCOCC1)NC(=O)N1CCC[C@@H]([C@H](OCCNC(=O)OC)c2cccs2)C1 [I*-16a] , respond with its pIC50. < 7.30

Given CNC[C@H](CC1CCC(=O)CC1)NC(=O)N1CCC[C@@H]([C@@H](OCCNC(=O)OC)c2cccc(Cl)c2)C1 [I*-80a] , respond with its pIC50. > 8.00

Given COC(=O)NCCO[C@@H](c1cccc(Cl)c1)[C@@H]1CCCN(C(=O)NC[C@@H](N)C[C@H]2CCCCOC2)C1 [I*-68a] , respond with its pIC50. > 9.00

Given CNC[C@H](CC1CCOCC1)NC(=O)N1CCC[C@@H]([C@@H](OCCNC(=O)OC)c2cc(F)cc(F)c2)C1 [I*-70a] , respond with its pIC50. > 7.70

Given CNC[C@H](CC1CCCCC1)NC(=O)N1CCC[C@@H]([C@@H](OCCNC(=O)OC)c2cccc(C(F)(F)F)c2)C1 [I*-136a] , respond with its pIC50. > 8.00

Given CNC[C@H](CC1CCCCC1)NC(=O)N1CCC[C@@H]([C@@H](OCCNc2nccs2)c2cccc(Cl)c2)C1 [I*-128a] , respond with its pIC50. < 7.30

Given CNC[C@@H](CC1(C)CCCCC1)NC(=O)N1CCC[C@@H]([C@@H](OCCNC(=O)OC)c2cccc(F)c2)C1 [I*-42a] , respond with its pIC50. < 7.30

Given CNC[C@@H](CC1(C)CCCCC1)NC(=O)N1CCC[C@@H]([C@@H](OCCNC(=O)OC)c2cccc(Cl)c2)C1 [I*-89a] , respond with its pIC50. < 7.30

Given "CNC[C@H](CC1CCCCC1)NC(=O)N1CCC[C@@H]([C@@H](OCCNC(=O)OC)c2cccs2)C1" , respond with its pIC50. > 9.00

Given CNC[C@H](CC1CCC(C)CC1)NC(=O)N1CCC[C@@H]([C@@H](OCCNC(=O)OC)c2cccc(Cl)c2)C1 (stereo partly shown) [I*-86a] , respond with its pIC50. > 9.00

Given CNC[C@H](CC1CCOCC1)NC(=O)N1CCC[C@@H]([C@@H](OCCNC(=O)OC)c2cccc(C(F)(F)F)c2)C1 [I*-144a] , respond with its pIC50. < 7.30

Given COC(=O)NCCO[C@@H](c1cccc(Cl)c1)[C@@H]1CCCN(C(=O)N[C@@H]2CNCC[C@H]2CC2CCC2)C1 (relative stereo) [I*-44a] , respond with its pIC50. > 8.00

Given CNC[C@H](C[C@H]1CCC2(CC2)OC1)NC(=O)N1CCC[C@@H]([C@@H](OCCNC(=O)OC)c2cccc(F)c2)C1 [I*-159a] , respond with its pIC50. > 8.00
